Biological target: β2 receptor (Homo sapiens, UniProt P07550)
Construct: endogenous in cells; host or cells: H292 cells
Experiment: Adrenergic β2 mediated cAMP production in H292 cells (AlphaScreen cAMP detection)
Type: cell-based
Settings: fraction relative to the maximum activity determined for formoterol, 10 minutes incubation
Experimental: H292 cells were grown in RPMI (Roswell Park Memorial Institute) medium containing, 10% (v/v) FBS (foetal bovine serum) and 2 mM L-glutamine. Cells were grown in 225 cm2 flasks containing 25 mL media in a humidified incubator at 37° C., 5% CO2. Cells were harvested from the flask and passaged at a 1 in 10 dilution once per week. […] The concentration of cAMP (cyclic adenosine monophosphate) in the cell lysate was determined using the AlphaScreen™ methodology. […]
Structures can show the parent of a compound that is named as a salt.
RECORDED_METRIC: Intrinsic Activity

O=c1[nH]c2c(O)ccc([C@@H](O)CNCCCS(=O)(=O)CCOCCc3cccc4ccccc34)c2s1 [Example 2, trifluoroacetate]    1.0
Cl.O=c1[nH]c2c(O)ccc([C@@H](O)CNCCCSCCCOCCc3ccc(Br)cc3)c2s1    0.7
Cl.O=c1[nH]c2c(O)ccc([C@@H](O)CNCCSCCCOCCc3ccccc3)c2s1    1.0
CN(CCCSCCNC[C@H](O)c1ccc(O)c2[nH]c(=O)sc12)CCc1ccccc1 [Example 12, trifluoroacetate]    0.8
Cl.O=c1[nH]c2c(O)ccc([C@@H](O)CNCCSCCOCCc3cccc4ccccc34)c2s1    0.9

* * *

target: recombinant human Dopamine Subtype D2s receptors (Homo sapiens, UniProt P14416); construct: purchased Perkin Elmer; assay: Dopamine D2 selectivity assay, inhibition of [3H]-spiperone binding; details: membranes, [3H]-spiperone 0.16 nM; read-out: D2 bind pIC50 (converted)
Sequence (P14416 1-414 isoform P14416-2): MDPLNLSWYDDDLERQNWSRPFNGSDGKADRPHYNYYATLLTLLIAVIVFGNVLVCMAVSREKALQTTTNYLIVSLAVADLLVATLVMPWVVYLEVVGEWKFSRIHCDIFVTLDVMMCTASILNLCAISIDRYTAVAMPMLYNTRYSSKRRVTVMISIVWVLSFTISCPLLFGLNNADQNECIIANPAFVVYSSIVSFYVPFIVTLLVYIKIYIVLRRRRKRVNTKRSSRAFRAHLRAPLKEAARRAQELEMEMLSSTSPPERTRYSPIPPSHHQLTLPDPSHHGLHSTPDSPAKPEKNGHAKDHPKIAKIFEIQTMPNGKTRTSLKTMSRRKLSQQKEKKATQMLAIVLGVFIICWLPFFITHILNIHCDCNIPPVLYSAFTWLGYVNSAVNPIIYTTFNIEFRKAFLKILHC
Counter-ions that a name gives are not always drawn.
RECORDED_METRIC: IC50 (nM)

O=c1[nH]c2c(O)ccc([C@@H](O)CNCCS(=O)(=O)CCCNCCc3cccc(Cl)c3)c2s1 [Example 42, dihydrochloride]    10000
O=c1[nH]c2c(O)ccc([C@@H](O)CNCCCSCCNCCc3cccc(Cl)c3)c2s1    1000
Cl.O=c1[nH]c2c(O)ccc([C@@H](O)CNCCSCCCOCCc3ccccc3)c2s1 [Example 8, hydrochloride]    1000
Cl.O=c1[nH]c2c(O)ccc([C@@H](O)CNCCSCCOCCc3cccc4ccccc34)c2s1 [Example 4, hydrochloride]    794
C[C@@H](CNCCSCCCNC[C@H](O)c1ccc(O)c2[nH]c(=O)sc12)c1ccccc1    1000
O=c1[nH]c2c(O)ccc([C@@H](O)CNCCCSCCNCCc3ccccc3Cl)c2s1    1580
O=c1[nH]c2c(O)ccc([C@@H](O)CNCCCSCCOCCc3cccc4ccccc34)c2s1 [Example 1, trifluoroacetate]    200

* * *

molecular target: Adrenergic β2 (Homo sapiens, UniProt P07550); construct: endogenous in cells; host or cells: H292 cells; assay: Alternative Adrenergic β2 Mediated cAMP Production in H292 cells (AlphaScreen cAMP detection); assay type: cell-based; settings: fraction relative to the maximum activity determined for formoterol, 60 minutes incubation
Sequence (P07550 whole entry): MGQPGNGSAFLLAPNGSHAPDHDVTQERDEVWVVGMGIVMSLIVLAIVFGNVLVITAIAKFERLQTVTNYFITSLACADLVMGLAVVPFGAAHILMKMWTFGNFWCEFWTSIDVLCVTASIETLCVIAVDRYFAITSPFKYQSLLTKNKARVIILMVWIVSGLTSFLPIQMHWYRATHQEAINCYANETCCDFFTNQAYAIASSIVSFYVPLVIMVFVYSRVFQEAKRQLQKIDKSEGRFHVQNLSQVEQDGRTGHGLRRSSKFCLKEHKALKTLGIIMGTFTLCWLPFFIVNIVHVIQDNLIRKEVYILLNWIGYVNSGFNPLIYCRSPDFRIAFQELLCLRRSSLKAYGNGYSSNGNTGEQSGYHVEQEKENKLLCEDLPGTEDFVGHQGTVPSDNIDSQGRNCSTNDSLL
Counter-ions that a name gives are not always drawn.
RECORDED_METRIC: β2 Int Act

Cl.O=c1[nH]c2c(O)ccc([C@@H](O)CNCCSCCCOCCc3ccccc3)c2s1    1
O=c1[nH]c2c(O)ccc([C@@H](O)CNCCCSCCNCCc3ccccc3Cl)c2s1    0.8
O=c1[nH]c2c(O)ccc([C@@H](O)CNCCCS(=O)(=O)CCOCCc3cccc4ccccc34)c2s1 [Example 2, trifluoroacetate]    1
O=c1[nH]c2c(O)ccc([C@@H](O)CNCCS(=O)(=O)CCCNCCc3cccc(Cl)c3)c2s1 [Example 42, dihydrochloride]    1
Cl.O=c1[nH]c2c(O)ccc([C@@H](O)CNCCCSCCCOCCc3ccccc3)c2s1    0.9
C[C@@H](CNCCCSCCNC[C@H](O)c1ccc(O)c2[nH]c(=O)sc12)c1ccccc1 [Example 46, dihydrochloride]    0.8
C[C@H](CNCCCSCCNC[C@H](O)c1ccc(O)c2[nH]c(=O)sc12)c1ccccc1 [Example 48, dihydrochloride]    0.9
O=c1[nH]c2c(O)ccc([C@@H](O)CNCCOCCCNCCc3cccc(Cl)c3)c2s1    1
O=c1[nH]c2c(O)ccc([C@@H](O)CNCCSCCCNCCc3cccc(C(F)(F)F)c3)c2s1    0.8
Cl.O=c1[nH]c2c(O)ccc([C@@H](O)CNCCSCCOCCc3cccc4ccccc34)c2s1    0.9
CN(CCCSCCNC[C@H](O)c1ccc(O)c2[nH]c(=O)sc12)CCc1ccccc1 [Example 12, trifluoroacetate]    1

* * *

Target: recombinant human α1D receptor (Homo sapiens, UniProt P25100)
Construct: expressed in transfected cells; host or cells: HEK293
Sequence (P25100 1-572): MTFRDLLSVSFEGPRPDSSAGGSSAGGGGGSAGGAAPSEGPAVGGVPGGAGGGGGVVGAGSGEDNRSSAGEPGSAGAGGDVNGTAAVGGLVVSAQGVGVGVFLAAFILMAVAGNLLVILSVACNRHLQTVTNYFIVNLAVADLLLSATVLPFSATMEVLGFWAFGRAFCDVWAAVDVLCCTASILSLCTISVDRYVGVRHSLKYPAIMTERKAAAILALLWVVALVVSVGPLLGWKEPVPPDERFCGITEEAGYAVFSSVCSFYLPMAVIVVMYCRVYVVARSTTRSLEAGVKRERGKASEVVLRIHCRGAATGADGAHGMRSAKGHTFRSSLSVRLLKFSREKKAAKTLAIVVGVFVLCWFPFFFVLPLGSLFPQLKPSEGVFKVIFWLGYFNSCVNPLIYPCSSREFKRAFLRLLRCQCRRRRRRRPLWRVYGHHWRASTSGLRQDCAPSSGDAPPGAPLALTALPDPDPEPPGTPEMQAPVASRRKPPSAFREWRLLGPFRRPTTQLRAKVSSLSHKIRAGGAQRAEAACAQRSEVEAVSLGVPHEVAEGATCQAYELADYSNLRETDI
Assay: Adrenergic α1D selectivity assay, inhibition of [3H]-prazosin binding
Conditions: HEK293 membranes, [3H]-prazosin 0.3 nM; read-out: α1 bind pIC50 (converted)
Where a name gives a salt, the structure may show the parent alone.
RECORDED_METRIC: IC50 (nM)
Give a bare numeral; the unit nM is implied.

CCc1ccc(CCNCCCSCCNC[C@H](O)c2ccc(O)c3[nH]c(=O)sc23)cc1 [Example 14]    100

O=c1[nH]c2c(O)ccc([C@@H](O)CNCCSCCCNCCc3ccccc3Cl)c2s1 [Example 20] yielded IC50 of 25.1

IC50 reading for CC(CNCCCSCCNC[C@H](O)c1ccc(O)c2[nH]c(=O)sc12)c1ccccc1 (mixture of isomers) [Example 44, dihydrochloride] : 398

* * *

biological target: recombinant human Dopamine Subtype D2s receptors (Homo sapiens); construct: purchased Perkin Elmer; assay: Dopamine D2 selectivity assay, inhibition of [3H]-spiperone binding; conditions: membranes, [3H]-spiperone 0.16 nM; read-out: D2 bind pIC50 (converted)
Structures can show the parent of a compound that is named as a salt.
RECORDED_METRIC: IC50 (nM)

Illustrative cases are given below, each with its answer.
O=c1[nH]c2c(O)ccc([C@@H](O)CNCCSCCCNCCc3cccc(Cl)c3Cl)c2s1 [Example 38, dihydrochloride]    398
C[C@H](CNCCSCCCNC[C@H](O)c1ccc(O)c2[nH]c(=O)sc12)c1ccccc1    3980

a: C[C@H](CNCCCSCCNC[C@H](O)c1ccc(O)c2[nH]c(=O)sc12)c1ccccc1 [Example 48, dihydrochloride]
b: C[C@@H](CNCCCSCCNC[C@H](O)c1ccc(O)c2[nH]c(=O)sc12)c1ccccc1 [Example 46, dihydrochloride]
c: CC(CNCCCSCCNC[C@H](O)c1ccc(O)c2[nH]c(=O)sc12)c1ccccc1 (mixture of isomers) [Example 44, dihydrochloride]
d: N[C@@H](COCCCSCCNC[C@H](O)c1ccc(O)c2[nH]c(=O)sc12)c1ccccc1
Sort the 4 compounds by IC50; largest first, smallest last. Please, when replying, give the labels in the order that was requested. c, a, b, d
(c: 12600 nM, a: 3980 nM, b: 1260 nM, d: 631 nM)

* * *

target: Adrenergic β2 (Homo sapiens); construct: endogenous in cells; host or cells: H292 cells; experiment: Alternative Adrenergic β2 Mediated cAMP Production in H292 cells (AlphaScreen cAMP detection); assay type: cell-based; details: fraction relative to the maximum activity determined for formoterol, 60 minutes incubation
Counter-ions that a name gives are not always drawn.
RECORDED_METRIC: β2 Int Act

In the examples that follow, each entry is paired with its recorded β2 Int Act.
CC(CNCCCSCCNC[C@H](O)c1ccc(O)c2[nH]c(=O)sc12)c1ccccc1 (mixture of isomers) [Example 44, dihydrochloride]    0.8
N[C@@H](COCCCSCCNC[C@H](O)c1ccc(O)c2[nH]c(=O)sc12)c1ccccc1    0.8
Cl.O=c1[nH]c2c(O)ccc([C@@H](O)CNCCSCCCNCCc3ccccc3)c2s1    0.9
O=c1[nH]c2c(O)ccc([C@@H](O)CNCCSCCCNCCc3ccccc3Cl)c2s1    0.8
C[C@H](CNCCSCCCNC[C@H](O)c1ccc(O)c2[nH]c(=O)sc12)c1ccccc1    0.9
O=c1[nH]c2c(O)ccc([C@@H](O)CNCCCSCCOCCc3cccc4ccccc34)c2s1 [Example 1, trifluoroacetate]    1
Cl.O=c1[nH]c2c(O)ccc([C@@H](O)CNCCCSCCCOCCc3ccc(Br)cc3)c2s1    0.9
C[C@@H](CNCCSCCCNC[C@H](O)c1ccc(O)c2[nH]c(=O)sc12)c1ccccc1    1

1: Cl.O=c1[nH]c2c(O)ccc([C@@H](O)CNCCCSCCOCCc3ccccc3)c2s1
2: CCOc1ccc(CCNCCCSCCNC[C@H](O)c2ccc(O)c3[nH]c(=O)sc23)cc1
Quick one: lower β2 Int Act, 1 or 2 ? Respond using the label that marks the chosen record. 2
